tgt: hGLP-1R (Homo sapiens, UniProt P43220)
Sequence (P43220 24-463): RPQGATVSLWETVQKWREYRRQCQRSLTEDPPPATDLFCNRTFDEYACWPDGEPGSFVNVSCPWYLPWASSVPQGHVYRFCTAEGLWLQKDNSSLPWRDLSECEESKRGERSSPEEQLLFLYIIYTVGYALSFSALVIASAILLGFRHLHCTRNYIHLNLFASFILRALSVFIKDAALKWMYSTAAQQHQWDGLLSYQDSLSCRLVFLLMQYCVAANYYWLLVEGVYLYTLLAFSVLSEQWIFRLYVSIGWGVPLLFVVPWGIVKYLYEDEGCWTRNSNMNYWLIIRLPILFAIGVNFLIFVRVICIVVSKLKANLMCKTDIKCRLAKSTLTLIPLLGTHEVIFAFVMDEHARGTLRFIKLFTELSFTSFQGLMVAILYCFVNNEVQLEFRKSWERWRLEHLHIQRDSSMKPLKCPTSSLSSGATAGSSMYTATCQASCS
assay_name: cell-based or functional assay
Please note: t applies when Relative cAMP EC50, nM (0.1% casein) is 3 nM or greater, and f applies otherwise.

YXQGTFTSDFSXXLDKKAQXAFIEYLLEXGESSGAPPPSGT (Aib, Orn, αMeL, acylated K, C-terminal amide; synthetic construct; SITE 2: note = 2-Aminoisobutyric Acid; SITE 12: note = L-ornithine; SITE 13: note = alpha-methyl-leucine; SITE 17: note = Lysine is chemically modified through conjugation of the epsilon-amino group of the Lysine side chain with (2-[2-(2-Amino-ethoxy)-ethoxy]-acetyl)2-(gamma-Glu)) [Example 180] :: t
YXQGTXTSDXXILLDKKAQXAFIEYLEEGGPSSGAPPPE (synthetic construct; SITE 2: note = 2-Aminoisobutyric Acid; SITE 6: note = alpha-methyl-2-fluoro-L-phenylalanine; SITE 10: note = 3-(4-Pyridyl)-L-alanine; SITE 11: note = alpha-methyl-L-serine; SITE 17: note = Lysine is chemically modified through conjugation of the epsilon-amino group of the Lysine) [Example 464] :: f
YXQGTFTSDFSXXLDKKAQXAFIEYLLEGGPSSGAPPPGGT (Lys acylated AEEA-γGlu-C18 diacid; non-natural residues; C-terminal amide; synthetic construct; SITE 2: note = 2-Aminoisobutyric Acid; SITE 12: note = L-ornithine; SITE 13: note = …; SITE 17: note = Lysine is chemically modified through conjugation of the epsilon-amino group of the Lysine side chain with (2-[2-(2-Amino-ethoxy)-ethoxy]-acetyl)-(gamma-Glu)) [Example 158] :: f
YXQGTXTSDXXIXLDXKAQXXFIEYLIEGGPSSGAPEPSEG (synthetic construct; SITE 2: note = 2-Aminoisobutyric Acid; SITE 6: note = alpha-methyl-2-fluoro-L-phenylalanine; SITE 10: note = 3-(4-Pyridyl)-L-alanine; SITE 11: note = alpha-methyl-L-serine; SITE 13: note = alpha-methyl-leucine; SITE 16: note = L-ornithine; SITE 17: note = Lysine is chemically mo) [Example 492] :: f
YXQGTXTSDXSIXLDXKAQXXFIEYLIEGGPSSGEPPPEEG (synthetic construct; SITE 2: note = 2-Aminoisobutyric Acid; SITE 6: note = alpha-methyl-2-fluoro-L-phenylalanine; SITE 10: note = 3-(4-Pyridyl)-L-alanine; SITE 13: note = alpha-methyl-leucine; SITE 16: note = L-ornithine; SITE 17: note = Lysine is chemically modified through conjugation of the epsil) [Example 477] :: f
YXQGTFTSDFSXXLDKKAQXAFIEYLLAGGPSSGEPPPSGS (Aib, Orn, αMeL; acylated Lys (AEEA-γGlu2-C18 diacid); C-terminal amide; synthetic construct; SITE 2: note = 2-Aminoisobutyric Acid; SITE 12: note = L-ornithine; SITE 13: note = alpha-methyl-leucine; SITE 17: note = Lysine is chemically modified through conjugation of the epsilon-amino group of the Lysine side chain with (2-[2-(2-Amino-ethoxy)-ethoxy]-acetyl)-(gamma-Glu)) [Example 153] :: t
YXQGTFTSDFSXXLDKKAQXAFIEYLLEXGPSSGEPPPEGS (Lys acylated (AEEA)2-γGlu-C18 diacid; non-natural residues; C-terminal amide; synthetic construct; SITE 2: note = 2-Aminoisobutyric Acid; SITE 12: note = L-ornithine; SITE 13: note = alpha-methyl-leucine; SITE 17: note = Lysine is chemically modified through conjugation of the epsilon-amino group of the Lysine side chain with (2-[2-(2-Amino-ethoxy)-ethoxy]-acetyl)2-(gamma-Glu)) [Example 195] :: t
YXQGTFTSDFSQXLDKKAQXAFIEYLLEGGPSSGAPPPSGS (Aib, αMeL; lipidated Lys; C-terminal amide; synthetic construct; SITE 2: note = 2-Aminoisobutyric Acid; SITE 13: note = alpha-methyl-leucine; SITE 17: note = Lysine is chemically modified through conjugation of the epsilon-amino group of the Lysine side chain with (2-[2-(2-Amino-ethoxy)-ethoxy]-acetyl)-(gamma-Glu)-CO-(CH2) 16-CO2H; SITE 20: n) [Example 150] :: f
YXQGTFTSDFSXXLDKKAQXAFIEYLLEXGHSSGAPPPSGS ((AEEA)2-γGlu-C18 diacid on Lys; non-natural residues; amide; synthetic construct; SITE 2: note = 2-Aminoisobutyric Acid; SITE 12: note = L-ornithine; SITE 13: note = alpha-methyl-leucine; SITE 17: note = Lysine is chemically modified through conjugation of the epsilon-amino group of the Lysine side chain with (2-[2-(2-Amino-ethoxy)-ethoxy]-acetyl)2-(gamma-Glu)) [Example 181] :: t
YXQGTFTSDFSXXLDKKAQXAFIEWLLEGGSSSGAPPPSGE (Aib, Orn, αMeL, acylated Lys, amide; synthetic construct; SITE 2: note = 2-Aminoisobutyric Acid; SITE 12: note = L-ornithine; SITE 13: note = alpha-methyl-leucine; SITE 17: note = Lysine is chemically modified through conjugation of the epsilon-amino group of the Lysine side chain with (2-[2-(2-Amino-ethoxy)-ethoxy]-acetyl)-(gamma-Glu)) [Example 172] :: t
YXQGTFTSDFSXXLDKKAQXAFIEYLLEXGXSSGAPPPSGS (Aib, Orn, αMeL, 4Pal, acylated K, C-terminal amide; synthetic construct; SITE 2: note = 2-Aminoisobutyric Acid; SITE 12: note = L-ornithine; SITE 13: note = alpha-methyl-leucine; SITE 17: note = Lysine is chemically modified through conjugation of the epsilon-amino group of the Lysine side chain with (2-[2-(2-Amino-ethoxy)-ethoxy]-acetyl)2-(gamma-Glu)) [Example 183] :: t
YXQGTFTSDFSXXLDKKAQXAFIEYLLEGGPSSGAPPPGGQ (non-natural residues; lipidated Lys; C-terminal amide; synthetic construct; SITE 2: note = 2-Aminoisobutyric Acid; SITE 12: note = L-ornithine; SITE 13: note = alpha-methyl-leucine; SITE 17: note = Lysine is chemically modified through conjugation of the epsilon-amino group of the Lysine side chain with (2-[2-(2-Amino-ethoxy)-ethoxy]-acetyl)-(gamma-Glu)) [Example 159] :: t
YXQGTXTSDYXELLDKKAQXAFIEYLEEGGPSSGAPPPE (synthetic construct; SITE 2: note = 2-Aminoisobutyric Acid; SITE 6: note = alpha-methyl-2-fluoro-L-phenylalanine; SITE 11: note = alpha-methyl-L-serine; SITE 17: note = Lysine is chemically modified through conjugation of the epsilon-amino group of the Lysine side chain with (2-[2-(2-Amino-ethoxy)-e)) [Example 467] :: f
YXQGTFTSDFSXXLDKKAQXAFIEYLLEXGPSSGEPPPSGT (non-natural residues (Aib, Orn, αMeL); lipidated K; C-terminal amide; synthetic construct; SITE 2: note = 2-Aminoisobutyric Acid; SITE 12: note = L-ornithine; SITE 13: note = alpha-methyl-leucine; SITE 17: note = Lysine is chemically modified through conjugation of the epsilon-amino group of the Lysine side chain with (2-[2-(2-Amino-ethoxy)-ethoxy]-acetyl)2-(gamma-Glu)) [Example 167] :: t
YXQGTXTSDYSILLDKKAQXAFIEYLEEGGPSSGAPPPEEG (synthetic construct; SITE 2: note = 2-Aminoisobutyric Acid; SITE 6: note = alpha-methyl-2-fluoro-L-phenylalanine; SITE 17: note = Lysine is chemically modified through conjugation of the epsilon-amino group of the Lysine side chain with (gamma-Glu)2-CO-(CH2)16-CO2H; SITE 20: note = 2-Aminoisobutyric) [Example 471] :: f
YXQGTXTSDYXILLDKKAQXAFIEYLEEGGPSSGEPPPE (synthetic construct; SITE 2: note = 2-Aminoisobutyric Acid; SITE 6: note = alpha-methyl-2-fluoro-L-phenylalanine; SITE 11: note = alpha-methyl-L-serine; SITE 17: note = Lysine is chemically modified through conjugation of the epsilon-amino group of the Lysine side chain with (2-[2-(2-Amino-ethoxy)-e)) [Example 469] :: f
YXQGTFTSDFSXXLDKKAQXAFIEYLLEXGPSSGEPPPSGS (Aib, Orn, αMeL, acylated K, C-terminal amide; synthetic construct; SITE 2: note = 2-Aminoisobutyric Acid; SITE 12: note = L-ornithine; SITE 13: note = alpha-methyl-leucine; SITE 17: note = Lysine is chemically modified through conjugation of the epsilon-amino group of the Lysine side chain with (2-[2-(2-Amino-ethoxy)-ethoxy]-acetyl)2-(gamma-Glu)) [Example 166] :: t
YXQGTFTSDXSXXLDKKAQXAFIEYLLEXGPSSGAPPPSGS (non-natural residues; lysine acylated AEEA-γGlu-C18 diacid; C-terminal amide; synthetic construct; SITE 2: note = 2-Aminoisobutyric Acid; SITE 10: note = 4-cyano-L-phenylalanine; SITE 12: note = L-ornithine; SITE 13: note = alpha-methyl-leucine; SITE 17: note = Lysine is chemically modified through conjugation of the epsilon-amino group of the Lysine side chain with (2-[2-(2-) [Example 191] :: f
YXQGTXTSDXXIXLDXKAQXXFIEYLLEGGPSSGEPPPE (synthetic construct; SITE 2: note = 2-Aminoisobutyric Acid; SITE 6: note = alpha-methyl-2-fluoro-L-phenylalanine; SITE 10: note = 3-(4-Pyridyl)-L-alanine; SITE 11: note = alpha-methyl-L-serine; SITE 13: note = alpha-methyl-leucine; SITE 16: note = L-ornithine; SITE 17: note = Lysine is chemically mo) [Example 460] :: f
YXQGTXTSDXXIXLDXKAQXNFIEXLIEGGPSSGEPEPEEG (synthetic construct; SITE 2: note = 2-Aminoisobutyric Acid; SITE 6: note = alpha-methyl-2-fluoro-L-phenylalanine; SITE 10: note = 3-(4-Pyridyl)-L-alanine; SITE 11: note = alpha-methyl-L-serine; SITE 13: note = alpha-methyl-leucine; SITE 16: note = L-ornithine; SITE 17: note = Lysine is chemically mo) [Example 474] :: f
